melting point by entry:
- measurement.setup: a range is the spread between reports

# molecule, melting point
data = [
    ("Clc1nc(Cl)nc(Nc2ccccc2Cl)n1", "160 °C"),
    ("Cc1nnc(C)s1", "63 to 65 °C"),
    ("N#Cc1cccc(C#N)c1", "161 to 162 °C"),
]

Q: I have this molecule here, `Clc1cc(Cl)cc(Cl)c1` , and I need its recorded melting point.
A: 63.4 to 65 °C

Q: What does the data say about its melting point? Entry: `CCCCNC(=S)NCCCC`
A: 64 to 66 °C

Q: # melting point lookup, item `NC(=O)c1ccc(Cl)cc1`
A: 173 to 178 °C

Q: What value of measured melting point is listed for `Fc1ccc(Br)cc1` ?
A: -17.4 to -16 °C

Q: // lookup melting point for `O=[N+]([O-])c1ccc(Cl)c([N+](=O)[O-])c1`
A: 50 to 53 °C

Q: Looking for the measured melting point of CC1(C)CC(C)(c2ccccc2)c2ccccc21 (stereo unspecified) , can you help?
A: 50 to 52.5 °C

Q: Return reported melting point; argument: `Cn1nnc2ccccc21`
A: 64.5 to 65 °C

Q: Recorded melting point for `COC(=O)C(=O)OC` , please?
A: 52 to 54.3 °C

Q: What value of melting point has been recorded for this entry: `Cc1cccc(C(N)=O)c1`
A: 95 to 96 °C

Q: Give its melting point value. Item: `CCCC(C)(C)CC`
A: -126 °C

Q: Sample `COc1cc(OC)cc(OC)c1` — what was its melting point?
A: 52 to 54.5 °C

Q: Requested read-out: melting point. Entry: `COc1cc(OC)c(C=O)c(OC)c1`
A: 120 to 121 °C

Q: // returns reported melting point for input `Oc1ccncc1`
A: 145 to 150 °C
